assay: E. coli DRC41 culture turbidity changes, primary screen, E. coli filamentation inducer project, strain DRC41, OD650, 48 h (AID 1152);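 further: E. coli MC1000 strain DRC41 lacking acrAB efflux pump and sulA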; conditions: E. coli DRC41 (acrAB sulA), higher = more signal, called active from +8 up or from −8 down
measuredMetric: z-score
Lab note: record the figure alone, no unit after it.

Problem: State the recorded z-score for this entry: C[C@@H](c1ccccc1)N1C(=O)[C@H]2[C@H]3[C@H](O)[C@H](O)CC(=NOC[C@@H](O)COCc4ccco4)[C@H]3CC[C@H]2C1=O
Solution: -0.309

Problem: Same again, this time with COCCNC(=O)OCC1CCCC2(CC(OC(=O)NCc3cccc4ccccc34)CC(CCC(=O)N[C@@H](C)C(=O)OC)O2)O1 (stereo not given in full)
Solution: 0.434

Problem: Same again, this time with O=C1[C@H]2[C@H]3[C@H](O)[C@H](O)CC(=NO[C@@H]4O[C@H](CO)[C@@H](O)[C@H](O)[C@H]4O)[C@@H]3CC[C@H]2C(=O)N1C[C@@H]1CCCO1
Solution: -1.2

Problem: Same again, this time with CCN(CC)CC(O)CN1CCCCc2nc(C)c(C)cc21 (stereo not given)
Solution: 0.219

Problem: Same again, this time with CC(CCN1CCc2nc(-c3ccccc3)c(-c3ccccc3)cc2C1)=NO[C@@H](C)c1cc(-c2c(C)cc(C)cc2C)no1
Solution: -1.03

Problem: Same again, this time with COC(=O)[C@H](C)NC(=O)CCC1CC(OC(=O)NCc2cccc3ccccc23)CC2(CCCC(COC(=O)NCc3ccccc3)O2)O1 (stereo not given in full)
Solution: -0.249

Problem: Same again, this time with COC(=O)[C@@H]1CC[C@H](C)[C@@H](c2ccc(C)cc2)N1C(=O)c1ccc(C=NOC[C@H]2O[C@H](c3ccccc3)C=C[C@@H]2Oc2ccc(OC)cc2)cc1
Solution: 0.229

Problem: Same again, this time with CCN1C(=O)[C@H]2[C@H]3[C@H](O)[C@H](O)CC(=NO[C@@H](C)c4cc(-c5c(C)cc(C)cc5C)no4)[C@@H]3CC[C@H]2C1=O
Solution: 0.663

Problem: Same again, this time with CC(C)=NO[C@H](C)c1cn([C@@H]2COC[C@H]2O)nn1
Solution: 0.36

Problem: Same again, this time with COC(=O)[C@H](C)NC(=O)CCC1CC(OC(=O)NCCc2ccc(F)cc2)CC2(CCCC(COC(=O)NCCOc3ccccc3)O2)O1 (stereo not given in full)
Solution: -0.651

Problem: Same again, this time with CO[C@@H](C1CCCCC1)[C@@H](C)[C@H](OCc1cccc(Br)c1)[C@@H](C)CO
Solution: -0.409

Problem: Same again, this time with O=C1[C@H]2[C@H]3[C@H](O)[C@H](O)CC(=NO[C@@H]4O[C@H](CO)[C@@H](O)[C@H](O)[C@H]4O)[C@@H]3CC[C@H]2C(=O)N1c1cccc(Oc2ccccc2)c1
Solution: -0.192

Problem: Same again, this time with CC=CC1=C(CO)[C@H](O)[C@H]2O[C@H]2[C@@H]1O
Solution: -0.412

Problem: Same again, this time with CC(C)CON=C1[C@H]2CCn3c(=O)n(C)c(=O)n3[C@H]2[C@H](O)[C@@H]2O[C@H]12
Solution: -0.0031

Problem: Same again, this time with COC(=O)[C@H](C)NC(=O)CCC1CC(OC(=O)NCCc2ccc(F)cc2)CC2(CCCC(COC(=O)NCCc3ccccc3OC)O2)O1 (stereo not given in full)
Solution: 0.121
